Please respond with reported Ph-p38 MFI at 0.4 nM Ab (500 pM human IL-33, primary basophils) for every item in the list.
Study system: T1, human IL-33 (R&D Systems, #3625-IL-010/CF) (human) (UniProt O95760)
T1 sequence (looked up): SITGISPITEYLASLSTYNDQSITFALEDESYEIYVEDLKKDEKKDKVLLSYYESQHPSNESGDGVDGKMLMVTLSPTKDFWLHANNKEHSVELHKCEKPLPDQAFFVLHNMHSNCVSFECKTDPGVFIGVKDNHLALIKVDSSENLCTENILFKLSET
Write the value in MFI as a bare number.

Q: Any idea what Ph-p38 MFI at 0.4 nM Ab (500 pM human IL-33, primary basophils) was measured for H4H9676P (antibody, from another filing, IgG4, V domains shown) VH: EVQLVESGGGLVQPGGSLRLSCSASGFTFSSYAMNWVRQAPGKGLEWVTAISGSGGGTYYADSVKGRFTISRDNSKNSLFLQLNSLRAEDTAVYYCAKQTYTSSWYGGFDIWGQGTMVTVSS VL: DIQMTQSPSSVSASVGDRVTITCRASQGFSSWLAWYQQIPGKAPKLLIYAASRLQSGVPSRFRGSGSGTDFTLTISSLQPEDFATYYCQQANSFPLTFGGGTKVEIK ?
A: 132

Q: Any idea what Ph-p38 MFI at 0.4 nM Ab (500 pM human IL-33, primary basophils) was measured for H4H9663P (antibody, from another filing, IgG4, V domains shown) VH: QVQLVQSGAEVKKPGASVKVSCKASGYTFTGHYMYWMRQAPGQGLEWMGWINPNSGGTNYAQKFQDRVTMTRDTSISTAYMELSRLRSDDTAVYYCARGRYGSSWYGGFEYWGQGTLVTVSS VL: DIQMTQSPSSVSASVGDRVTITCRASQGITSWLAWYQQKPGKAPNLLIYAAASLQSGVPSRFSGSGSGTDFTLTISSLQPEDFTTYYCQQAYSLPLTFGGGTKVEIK ?
A: 123

Q: Any idea what Ph-p38 MFI at 0.4 nM Ab (500 pM human IL-33, primary basophils) was measured for H4H9664P (antibody, from another filing, IgG4, V domains shown) VH: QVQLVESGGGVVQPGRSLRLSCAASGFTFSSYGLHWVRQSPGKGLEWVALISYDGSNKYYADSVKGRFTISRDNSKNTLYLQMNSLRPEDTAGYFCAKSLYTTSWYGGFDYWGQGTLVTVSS VL: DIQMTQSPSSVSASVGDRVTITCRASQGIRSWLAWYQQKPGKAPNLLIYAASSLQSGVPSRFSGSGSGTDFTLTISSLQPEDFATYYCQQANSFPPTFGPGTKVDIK ?
A: 63
